Tested on: PBL
Test: Cytotoxicity against PHA-stimulated human PBL assessed as growth inhibition after 72 hrs by MTT assay
Type: cell-based
ASSAY_METRIC: pIC50
Conceptually, pIC50 converts a concentration in mol/L into minus its log10.

Identify measured pIC50 associated with COc1cc(C(=O)c2cc3cc(N)cc(OC)c3s2)cc(OC)c1OC
4.69

----------
Biological target: Tubulin (Homo sapiens) (UniProt P68371+Q9H4B7+P0DPH7+P68366+Q13509+Q71U36+P04350+Q3ZCM7+P07437+P68363+Q9BQE3+Q6PEY2+Q13885+Q9BVA1+Q9BUF5)
Assay: Displacement of [3H]-colchicine from tubulin (unknown origin) at 5 uM after 10 mins relative to control
Format: protein-complex assay
ASSAY_METRIC: inhibition (%)
I only need the number, in %, no unit after it.

Would you please look over these solved cases?
COc1cc(C(=O)c2sc3c(OC)cc(N)cc3c2C)cc(OC)c1OC ... 95
COc1cc(C(=O)c2sc3ccccc3c2N)cc(OC)c1OC ... 39
COc1cc2sc(C(=O)c3cc(OC)c(OC)c(OC)c3)c(C)c2cc1N ... 95

Identify measured inhibition associated with COc1cc(C(=O)c2cc3cc(N)cc(OC)c3s2)cc(OC)c1OC
97

Identify measured inhibition associated with COc1cc(C(=O)c2sc3ccc(N)cc3c2C)cc(OC)c1OC
78

Identify measured inhibition associated with COc1cc(C(=O)c2sc3c(OC)cccc3c2N)cc(OC)c1OC
39

Identify measured inhibition associated with COc1cc(C(=O)c2cc3cc(N)ccc3s2)cc(OC)c1OC
65

----------
Assay: Selectivity ratio of IC50 for HUVEC to IC50 for human HeLa cells
Format: ADME, cell-based
Settings: HUVEC and HeLa cells, read-out: Ratio IC50
ASSAY_METRIC: selectivity ratio
Write no unit; give the number alone.

Identify measured selectivity ratio associated with COc1cc(C(=O)c2cc3cc(N)cc(OC)c3s2)cc(OC)c1OC
460

----------
Test: Selectivity ratio of IC50 for HUVEC to IC50 for mouse L1210 cells
Assay type: ADME, cell-based
Details: HUVEC and L1210 cells, read-out: Ratio IC50
ASSAY_METRIC: selectivity ratio
Write no unit; give the number alone.

Identify measured selectivity ratio associated with COc1cc(C(=O)c2cc3cc(N)cc(OC)c3s2)cc(OC)c1OC
460

----------
Assay: Selectivity ratio of IC50 for HUVEC to IC50 for human Molt4/C8 cells
Type: ADME, cell-based
Details: HUVEC and Molt4/C8 cells, read-out: Ratio IC50
ASSAY_METRIC: selectivity ratio
Write no unit; give the number alone.

Identify measured selectivity ratio associated with COc1cc(C(=O)c2cc3cc(N)cc(OC)c3s2)cc(OC)c1OC
460

----------
Experiment: Selectivity ratio of IC50 for HUVEC to IC50 for mouse FM3A/0 cells
Assay type: ADME, cell-based
Settings: HUVEC and FM3A/0 cells, read-out: Ratio IC50
ASSAY_METRIC: selectivity ratio
Write no unit; give the number alone.

Identify measured selectivity ratio associated with COc1cc(C(=O)c2cc3cc(N)cc(OC)c3s2)cc(OC)c1OC
460

----------
Assay: Selectivity ratio of IC50 for HUVEC to IC50 for human CEM/0 cells
Assay type: ADME, cell-based
Conditions: HUVEC and CEM/0 cells, read-out: Ratio IC50
ASSAY_METRIC: selectivity ratio
Write no unit; give the number alone.

Identify measured selectivity ratio associated with COc1cc(C(=O)c2cc3cc(N)cc(OC)c3s2)cc(OC)c1OC
460
